Provenance of the data: patent US11571423B2

Molecular target: cynomolgus monkey STING protein (Macaca fascicularis, UniProt A0A2R3XZA6)
Sequence (A0A2R3XZA6 entry or part of it): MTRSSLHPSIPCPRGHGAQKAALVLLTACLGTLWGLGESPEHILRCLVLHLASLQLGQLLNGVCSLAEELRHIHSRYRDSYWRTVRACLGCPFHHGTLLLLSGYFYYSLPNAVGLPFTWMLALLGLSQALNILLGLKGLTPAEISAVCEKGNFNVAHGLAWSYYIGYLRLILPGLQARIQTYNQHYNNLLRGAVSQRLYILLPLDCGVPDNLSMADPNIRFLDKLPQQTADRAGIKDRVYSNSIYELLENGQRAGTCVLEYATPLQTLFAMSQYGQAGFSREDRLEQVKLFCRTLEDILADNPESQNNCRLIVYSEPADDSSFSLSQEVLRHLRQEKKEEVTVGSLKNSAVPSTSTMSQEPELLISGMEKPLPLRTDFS
Test: Luciferase reporter assay, cynomolgus monkey STING overexpressed in HEK293T cells
Assay type: cell-based
Details: cynomolgus monkey STING overexpressed in HEK293T cells; read-out: Cynomolgus monkey STING activity (EC50 range)
pEC50: −log10 of the molar value. Counter-ions that a name gives are not always drawn.
Record form. Attribute: pEC50. Fill in for each entry.

// worked examples, pEC50 included
{"compound": "CC1c2ccc(C(=O)NCc3c(F)cc(F)cc3F)cc2N(Cc2ccccc2F)C(=O)N1C (stereo not shown)", "pEC50": "> 6.00"}
{"compound": "C[C@H]1c2ccc(C(=O)NCc3c(F)cc(F)cc3F)cc2N(Cc2c(F)ccc(OP(=O)(O)O)c2F)C(=O)N1C", "pEC50": "> 6.00"}
{"compound": "C[C@H]1c2ccc(C(=O)NCc3c(F)cc(F)cc3F)cc2N(Cc2c(F)ccc(OCCCO)c2F)C(=O)N1C", "pEC50": "5.00 to 6.00"}

For the 4 compounds below, give their pEC50 values.
1. CC1c2ccc(C(=O)NCc3c(F)cc(F)cc3F)cc2N(Cc2cc(O)ccc2F)C(=O)N1C (stereo not shown)
2. C[C@H]1c2ccc(C(=O)NCc3c(F)cc(F)cc3F)cc2N(Cc2c(F)cc(OC[C@H](O)CO)cc2F)C(=O)N1C
3. C[C@H]1c2ccc(C(=O)NCc3c(F)cc(F)cc3F)cc2N(Cc2c(F)ccc(OCCO)c2F)C(=O)N1C
4. C[C@H]1c2ccc(C(=O)NCc3c(F)cc(F)cc3F)cc2N(Cc2c(F)cc(OCCN3CCOCC3)cc2F)C(=O)N1C

1: > 6.00; 2: > 6.00; 3: 5.00 to 6.00; 4: > 6.00

For the 4 compounds below, give their pEC50 values.
1. C[C@H]1c2ccc(C(=O)NCc3c(F)cc(F)cc3F)cc2N(Cc2c(F)cc(OCCNS(C)(=O)=O)cc2F)C(=O)N1C
2. Cc1nccc(CN2C(=O)N(C)[C@@H](C)c3ccc(C(=O)NCc4c(F)cc(F)cc4F)cc32)c1F
3. C[C@H]1c2ccc(C(=O)NCc3c(F)cc(F)cc3F)cc2N(Cc2c(F)ccc(CO)c2F)C(=O)N1C
4. C[C@H]1c2ccc(C(=O)NCc3c(F)cc(F)cc3F)cc2N(Cc2cc(OCCO)ccc2F)C(=O)N1C

1: > 6.00; 2: > 6.00; 3: > 6.00; 4: 5.00 to 6.00

For the 8 compounds below, give their pEC50 values.
1. C[C@H]1c2ccc(C(=O)NCc3c(F)cc(F)cc3F)cc2N(Cc2c(F)cc(OCCOP(=O)(O)O)cc2F)C(=O)N1C
2. COc1cnc(C)c(F)c1CN1C(=O)N(C)[C@@H](C)c2ccc(C(=O)NCc3c(F)cc(F)cc3F)cc21
3. C[C@H]1c2ccc(C(=O)NCc3c(F)cc(F)cc3F)cc2N(Cc2c(F)cc(OCCN)cc2Cl)C(=O)N1C [Example 299, hydrochloride]
4. C[C@H]1c2ccc(C(=O)NCc3c(F)cc(F)cc3F)cc2N(Cc2c(N)cccc2F)C(=O)N1C
5. C[C@H]1c2ccc(C(=O)NCc3c(F)cc(F)cc3F)cc2N(Cc2cc(OCCCO)ccc2F)C(=O)N1C
6. COc1cc(F)c(CN2C(=O)N(C)[C@@H](C)c3ccc(C(=O)NCc4c(F)cc(F)cc4F)cc32)cc1OC
7. CC1c2ccc(C(=O)NCc3c(F)cc(F)cc3F)cc2N(Cc2c(F)cccc2C(F)(F)F)C(=O)N1C (stereo not shown)
8. COc1cc(F)c(CN2C(=O)N(C)C(C)c3ccc(C(=O)NCc4c(F)cc(F)cc4F)cc32)c(F)c1 (stereo not shown)

1: > 6.00; 2: > 6.00; 3: < 5.00; 4: > 6.00; 5: 5.00 to 6.00; 6: > 6.00; 7: > 6.00; 8: > 6.00
